Data origin, for the record: patent US11566029B2

SYSTEM TESTED: CDK7/CycH/MAT1 (Homo sapiens)
Sequence (P50613 whole entry): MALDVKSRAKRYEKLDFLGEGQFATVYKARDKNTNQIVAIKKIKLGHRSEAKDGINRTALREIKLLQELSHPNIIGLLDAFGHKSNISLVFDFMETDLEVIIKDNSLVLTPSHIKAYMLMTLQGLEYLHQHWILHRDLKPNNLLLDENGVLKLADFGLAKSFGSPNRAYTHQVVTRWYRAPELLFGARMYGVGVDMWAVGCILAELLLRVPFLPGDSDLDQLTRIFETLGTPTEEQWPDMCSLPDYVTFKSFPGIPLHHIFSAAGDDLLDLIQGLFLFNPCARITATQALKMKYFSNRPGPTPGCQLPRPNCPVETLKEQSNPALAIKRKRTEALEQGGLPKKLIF
Sequence (P51946 whole entry partner): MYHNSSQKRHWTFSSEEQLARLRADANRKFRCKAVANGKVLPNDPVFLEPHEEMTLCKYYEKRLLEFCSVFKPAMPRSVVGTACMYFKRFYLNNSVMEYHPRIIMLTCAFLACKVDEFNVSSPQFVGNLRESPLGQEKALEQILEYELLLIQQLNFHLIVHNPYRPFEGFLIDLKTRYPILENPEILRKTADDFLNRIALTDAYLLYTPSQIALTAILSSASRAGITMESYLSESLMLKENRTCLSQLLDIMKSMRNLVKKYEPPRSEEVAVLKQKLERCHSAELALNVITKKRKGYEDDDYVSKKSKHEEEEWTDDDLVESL
Sequence (P51948 whole entry partner): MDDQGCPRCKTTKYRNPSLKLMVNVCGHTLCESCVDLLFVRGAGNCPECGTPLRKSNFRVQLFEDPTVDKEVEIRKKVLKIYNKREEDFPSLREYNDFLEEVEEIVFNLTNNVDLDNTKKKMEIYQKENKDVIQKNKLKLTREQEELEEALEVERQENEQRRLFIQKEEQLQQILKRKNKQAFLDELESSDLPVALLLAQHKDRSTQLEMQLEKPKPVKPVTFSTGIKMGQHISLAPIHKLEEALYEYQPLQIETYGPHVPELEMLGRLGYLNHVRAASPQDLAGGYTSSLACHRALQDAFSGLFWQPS
EXPERIMENTAL DETAILS: In vitro kinase assay (PKLight luciferase ATP readout), CDK7
CONDITION DESCRIPTION: ATP at Km; read-out: In vitro Kinase Inhibition CDK7 IC50
Structures can show the parent of a compound that is named as a salt.
OBSERVABLE: IC50 (µM)

CC(C)c1cnn2c(NCC3CCCCC3)cc(NC[C@H]3CCNC[C@@H]3O)nc12; 0.94
CC(C)c1cnn2c(NCc3ccccc3)cc(N[C@H]3CNCC3O)nc12 (stereo in doubt) [PPDA-015, hydrochloride]; 0.027
CC(C)c1cnn2c(NCc3ccccc3)cc(NCC3CCNCC3)nc12 [XX-01, reference compound]; 0.31
CC(C)c1cnn2c(NCC3CCCCC3)cc(N[C@H]3CNC[C@H]3O)nc12; 0.246
CC(C)c1cnn2c(NCc3ccccc3Cl)cc(NCC3(O)CCNCC3)nc12; 0.414

[I] CC(C)c1cnn2c(NCC3CCCCC3)cc(NC[C@@]3(CO)CCNC3)nc12 (racemic)
[II] CC(C)c1cnn2c(NCc3ccccc3)cc(N[C@@H]3CN[C@H](CO)C3)nc12 [PPDA-026, hydrochloride]
[in] Which shows the larger IC50 value: I or II ? Indicate your choice by writing its label.
[out] II

[A] CC(C)c1cnn2c(NCc3ccncc3)cc(NCC3(O)CCNCC3)nc12 [PPDA-010, hydrochloride]
[B] CC(C)c1cnn2c(NCc3ccccc3Br)cc(NCC3(O)CCNCC3)nc12
[in] Which shows the larger IC50 value: A or B ? Indicate your choice by writing its label.
[out] A

[1] CC(C)c1cnn2c(NC3CCN(S(=O)(=O)c4ccc(F)cc4)CC3)cc(NC[C@H]3CCNC[C@@H]3O)nc12
[2] CC(C)c1cnn2c(NCc3ccccc3)cc(N[C@@H]3CNCC[C@]3(O)CO)nc12
[3] CC(C)c1cnn2c(NCc3ccccc3)cc(NC[C@H]3NCC[C@@H]3O)nc12
[in] Order the 3 compounds from highest to lowest IC50. The labels, placed in the requested order, form the answer.
[out] 3, 2, 1

[1] CC(C)c1cnn2c(NCc3ccccc3Cl)cc(NC[C@@]3(CO)CCNC3)nc12 (racemic)
[2] CC(C)c1cnn2c(Nc3ccc(N4CCN(C)CC4)cc3)cc(NC[C@H]3CCNC[C@@H]3O)nc12 [PPDA-007, hydrochloride]
[in] Which shows the larger IC50 value: 1 or 2 ? Indicate your choice by writing its label.
[out] 2
(2: 0.461 µM, 1: 0.081 µM)
